measured.target: TRPV4 (Homo sapiens)
test.description: fura-2 Ca2+ imaging dose-response in CCD […] cells (endogenous TRPV4), blocked by RN1734
Format: cell-based
measure.name: EC50

Give EC50 for CCCCC/C=C\C/C=C\CC1OC1C/C=C\CCCC(=O)OC (stereo not shown) [8,9-EET methylestel]
111 nM

###

measured.target: TRPV4 (Homo sapiens, UniProt Q9HBA0)
Sequence (Q9HBA0 whole entry): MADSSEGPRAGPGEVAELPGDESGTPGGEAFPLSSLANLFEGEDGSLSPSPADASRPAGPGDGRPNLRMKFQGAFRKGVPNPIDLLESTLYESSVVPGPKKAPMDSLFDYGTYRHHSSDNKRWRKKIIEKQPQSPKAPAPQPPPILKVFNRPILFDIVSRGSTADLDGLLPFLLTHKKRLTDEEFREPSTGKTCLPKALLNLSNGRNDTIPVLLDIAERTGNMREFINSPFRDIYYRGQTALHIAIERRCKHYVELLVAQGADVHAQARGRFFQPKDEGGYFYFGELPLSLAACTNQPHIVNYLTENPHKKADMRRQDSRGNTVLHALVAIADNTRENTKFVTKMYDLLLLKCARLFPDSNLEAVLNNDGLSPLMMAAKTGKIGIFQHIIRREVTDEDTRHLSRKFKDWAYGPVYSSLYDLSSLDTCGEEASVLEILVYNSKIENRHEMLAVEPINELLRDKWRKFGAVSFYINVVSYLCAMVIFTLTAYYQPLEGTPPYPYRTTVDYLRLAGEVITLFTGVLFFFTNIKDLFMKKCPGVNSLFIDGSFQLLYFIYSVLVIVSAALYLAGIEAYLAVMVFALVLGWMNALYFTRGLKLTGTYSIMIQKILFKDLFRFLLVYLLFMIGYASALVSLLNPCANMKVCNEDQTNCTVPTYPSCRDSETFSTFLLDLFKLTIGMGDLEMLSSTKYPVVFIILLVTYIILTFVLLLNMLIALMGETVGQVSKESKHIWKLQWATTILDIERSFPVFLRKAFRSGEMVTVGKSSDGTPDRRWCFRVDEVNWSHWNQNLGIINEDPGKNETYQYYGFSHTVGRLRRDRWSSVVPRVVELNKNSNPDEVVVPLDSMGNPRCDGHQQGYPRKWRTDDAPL
test.description: fura-2 Ca2+ imaging dose-response in CCD […] cells (endogenous TRPV4)
Assay type: cell-based
measure.name: pEC50
Answers are plain numbers, as −log10 of the molar value.

Using known records, supply pEC50 for CC(C)C[C@H](NC(=O)c1cc2ccccc2s1)C(=O)N1CCN(C(=O)[C@H](CO)NS(=O)(=O)c2ccc(Cl)cc2Cl)CC1 [GSK101]
6.64

The values you see were collected from paper PMC6203352.
